assay: Metal chelating activity assessed as Zn2+-compound complex formation by measuring stability constant for ZnL(OH) in 0.15M NaCl at 298.1K by potentiometric titration analysis
# note: exactly -3 is not below, so it is no; use yes for log K strictly under it

IN: Criterion: log K strictly below -3. Is it met by c1ccc2cc(CN(CCNCc3ccncc3)CCNCc3ccncc3)ccc2c1 ?
OUT: yes

* * *

assay: Metal chelating activity assessed as Zn2+-compound complex formation by measuring stability constant for ZnL(OH)2 using pre-Zn2+-complexed compound (ZnL(OH)) in 0.15M NaCl at 298.1K by potentiometric titration analysis
result.type: log K
// no unit, no text: just the number

Please review the entries below; each comes with its answer.
[[record]]
given_smiles = "c1cncc(CNCCN(CCNCc2cccnc2)Cc2ccc3ccccc3c2)c1"
result_type = "log K"
recorded_value = -9.54

[[record]]
given_smiles = "O=S(=O)(c1cccc2ccccc12)N(CCNCc1ccccn1)CCNCc1ccccn1"
result_type = "log K"
recorded_value = -10.3

[[record]]
given_smiles = "c1ccc2cc(CN(CCNCc3ccncc3)CCNCc3ccncc3)ccc2c1"
result_type = "log K"
recorded_value = -8.67


// switching to the query compound
IN: Record request: log K value, item CN(C)c1cccc2c(S(=O)(=O)N(CCNCc3ccccn3)CCNCc3ccccn3)cccc12
OUT: -10.4

* * *

experiment: Metal chelating activity assessed as Zn2+-compound complex formation at physiological pH 7.4 by quantum mechanical studies
Active and inactive are the calls of the source. The calls are words filed in the database; no cut-off is given here.
result.type: Activity

Please review the entries below; each comes with its answer.
[[record]]
given_smiles = "CN(C)c1cccc2c(S(=O)(=O)N(CCNCc3ccccn3)CCNCc3ccccn3)cccc12"
recorded_value = "Active"

[[record]]
given_smiles = "c1cncc(CNCCN(CCNCc2cccnc2)Cc2ccc3ccccc3c2)c1"
recorded_value = "63.4%"

[[record]]
given_smiles = "O=C(NCCN(CCNC(=O)c1ccccn1)Cc1ccc2ccccc2c1)c1ccccn1"
recorded_value = "Active"

[[record]]
given_smiles = "c1ccc(CNCCN(CCNCc2ccccn2)Cc2ccc3ccccc3c2)nc1"
recorded_value = "> 99%"

[[record]]
given_smiles = "c1ccc2cc(CN(CCNCc3ccncc3)CCNCc3ccncc3)ccc2c1"
recorded_value = "60.7%"


// switching to the query compound
IN: Record request: Activity value, item CN(CCNCc1ccccn1)CCNCc1ccccn1
OUT: > 99%

* * *

test system: U-87 MG; assay: Antiproliferative activity against human U87MG cells assessed as reduction in cell viability at 10 uM incubated for 48 hrs by cell titer-glo assay; assay type: functional, cell-based; details: U-87MG ATCC
Activity calls are given as the source filed them. The calls are words filed in the database; no cut-off is given here.
Hi there, use one of these labels in your reply, thanks! true (1) = active, false (0) = inactive

Sample answers from the record:
[[record]]
given_smiles = "CN(CCNCc1ccncc1)CCNCc1ccncc1"
test_system = "U-87 MG"
category = "false (0)"

[[record]]
given_smiles = "CN(CCNCc1ccccn1)CCNCc1ccccn1"
test_system = "U-87 MG"
category = "true (1)"


IN: Per the records of this test, what outcome belongs to CN(C)c1cccc2c(S(=O)(=O)N(CCNCc3ccccn3)CCNCc3ccccn3)cccc12 ?
OUT: true (1)

IN: Per the records of this test, what outcome belongs to c1cncc(CNCCN(CCNCc2cccnc2)Cc2ccc3ccccc3c2)c1 ?
OUT: false (0)

IN: Per the records of this test, what outcome belongs to O=S(=O)(c1cccc2ccccc12)N(CCNCc1ccccn1)CCNCc1ccccn1 ?
OUT: true (1)

IN: Per the records of this test, what outcome belongs to c1ccc(CNCCN(CCNCc2ccccn2)Cc2ccc3ccccc3c2)nc1 ?
OUT: true (1)

IN: Per the records of this test, what outcome belongs to c1ccc2cc(CN(CCNCc3ccncc3)CCNCc3ccncc3)ccc2c1 ?
OUT: false (0)
